Every entry's value here was drawn from patent US20240425479A1.

test_system: Recombinant (1-346) HPK1 (h) (Homo sapiens, UniProt Q92918)
Construct: Recombinant (1-346) HPK1 (h) is incubated with 8 mM MOPS pH 7.0
Sequence (Q92918 1-346): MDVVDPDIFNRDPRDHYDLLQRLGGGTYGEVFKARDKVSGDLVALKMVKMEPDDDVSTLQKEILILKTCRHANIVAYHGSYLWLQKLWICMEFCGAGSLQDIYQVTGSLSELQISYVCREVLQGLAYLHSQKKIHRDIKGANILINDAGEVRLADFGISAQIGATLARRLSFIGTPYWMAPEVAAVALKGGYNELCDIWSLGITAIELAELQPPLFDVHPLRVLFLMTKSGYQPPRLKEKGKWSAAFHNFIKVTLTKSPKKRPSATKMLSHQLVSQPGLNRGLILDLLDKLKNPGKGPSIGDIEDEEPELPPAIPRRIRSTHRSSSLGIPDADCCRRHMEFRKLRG
test_summary: HPK1 human STE kinase enzymatic radiometric assay
Format: biochemical
protocol_conditions: read-out: HPK1 IC50 nM Range
IC50 by entry:

> print(dat)
                                   compound     assay.value
1  Nc1nc(F)c(-c2ccc(OC3CCOCC3)c(CN3CCC3)c2)nc1-c1cc2c(cc1F)C(=O)NCC2 [Example I-209]    11 to 100 nM
2  Cc1c[nH]c(=O)c2ccc(-c3nc(-c4cc(CN(C)C)c(N5CCOCC5)c(F)c4F)c(F)nc3N)cc12 [Example I-264]  101 to 1000 nM
3  Cc1[nH]c(=O)c2c(F)cc(-c3nc(-c4ccc(N5CCN(C(C)C)CC5)cc4)c(F)nc3N)cc2c1Cl [Example I-102]    0.1 to 10 nM

As a next step, examine the compound that follows.
[in] # lookup: IC50 of C[C@@H]1CN(c2ccc(-c3nc(-c4cc5c(cc4F)C(=O)NCC5)c(N)nc3F)cc2)C[C@H](C)N1C [Example I-58]
[out] 0.1 to 10 nM

---

test_system: Lck (h) (Homo sapiens, UniProt P06239)
Sequence (P06239 whole entry): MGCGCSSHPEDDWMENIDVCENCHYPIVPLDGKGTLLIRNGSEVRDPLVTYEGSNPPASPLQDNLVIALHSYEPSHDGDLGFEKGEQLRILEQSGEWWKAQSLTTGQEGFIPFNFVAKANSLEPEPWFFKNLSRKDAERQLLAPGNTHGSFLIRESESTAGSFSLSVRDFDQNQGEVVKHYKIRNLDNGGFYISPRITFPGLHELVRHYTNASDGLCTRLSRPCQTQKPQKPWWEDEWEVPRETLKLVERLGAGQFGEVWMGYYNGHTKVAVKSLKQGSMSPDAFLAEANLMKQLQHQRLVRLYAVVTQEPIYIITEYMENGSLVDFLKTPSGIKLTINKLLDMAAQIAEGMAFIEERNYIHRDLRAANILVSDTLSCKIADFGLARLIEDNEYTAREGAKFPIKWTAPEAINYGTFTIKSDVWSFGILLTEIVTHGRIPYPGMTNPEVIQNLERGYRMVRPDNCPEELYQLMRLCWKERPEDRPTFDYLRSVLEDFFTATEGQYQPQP
test_summary: Lck human STE kinase enzymatic radiometric assay
Assay type: biochemical
protocol_conditions: read-out: Lck IC50 nM Range
Structures can show the parent of a compound that is named as a salt.
The entries below come with measured IC50 values attached.

Examples with answers:
> print(dat)
                                   compound     assay.value
1  CC(C)N1CCN(c2ccc(-c3nc(-c4cc5c(cc4F)C(=O)NCC5)c(N)nc3F)cc2)CC1       > 1000 nM
2  CC(C)N1CCN(c2ccc(-c3nc(-c4cc5cc[nH]c(=O)c5cc4F)c(N)nc3F)cc2)CC1  101 to 1000 nM
3  Nc1nc(F)c(-c2ccc(N3CCN(C4COC4)CC3)cc2)nc1-c1cc(F)c2c(c1)CCNC2=O       > 1000 nM

[in] So what does the record say about IC50 for CN(C)Cc1cc(-c2nc(-c3ccc4c(c3)C3(CC3)CNC4=O)c(N)nc2F)ccc1C1CCOCC1 ?
[out] 101 to 1000 nM

[in] Item: CC(C)N1CCN(c2ccc(-c3nc(-c4ccc5c(=O)[nH]cc(F)c5c4)c(N)nc3F)cc2)CC1
[out] > 1000 nM

[in] Could you do the same for CCN(C)Cc1cc(-c2nc(-c3ccc4c(=O)[nH]cc(F)c4c3)c(N)nc2F)ccc1C1CCOCC1 , please?
[out] > 1000 nM

[in] Next compound: Nc1nc(F)c(-c2ccc(N3CCOCC3)c(CN3CCC3)c2)nc1-c1cc(F)c2c(c1)CCNC2=O
[out] > 1000 nM

[in] Record: Cc1c[nH]c(=O)c2ccc(-c3nc(-c4ccc(N5CCN(CC6CC6)CC5)cc4)c(F)nc3N)cc12
[out] > 1000 nM

[in] CC(C)N1C[C@H]2C[C@@]2(c2ccc(-c3nc(-c4cc(F)c5c(c4)CCNC5=O)c(N)nc3F)cc2)C1 [Example I-15, formate] , same question.
[out] > 1000 nM
